Each recorded value in this set is attributed to patent US20220259593A1.

Test system: K562 CRISPRi cells
TEST NAME: Perturb-seq pooled growth measurement (sgRNA counts, growth phenotype γ, relative activity)
Format: cell-based, human
CONDITION LABEL: sequencing read counts; 5 days of growth (day seven after transduction)
QUANTITY KIND: Perturb-seq pooled growth sgRNA counts, d5

Exercise: Consider the substance non-targeting_01040: non-targeting negative control sgRNA, GTACGGCATGGCGCACTGCG, SEQ ID NO: 170 (listed as DNA, chemistry not fully specified) [reference compound] . State its measured Perturb-seq pooled growth sgRNA counts, d5.
Solution: 0

Exercise: Consider the substance HSPA5_+_128003624.23-P1P2_00: sgRNA targeting HSPA5, GAGCCGAGTAGGCGACGGTG, SEQ ID NO: 88 (listed as DNA, chemistry not fully specified) . State its measured Perturb-seq pooled growth sgRNA counts, d5.
Solution: 1756

Exercise: Consider the substance MTOR_+_11322547.23-P1P2_00: sgRNA targeting MTOR, GGGCAGGGGGCCTGAAGCGG, SEQ ID NO: 146 (listed as DNA, chemistry not fully specified) . State its measured Perturb-seq pooled growth sgRNA counts, d5.
Solution: 6328

Exercise: Consider the substance BCR_+_23523092.23-P1P2_05: sgRNA targeting BCR, GCGCGCGGCGCCCGTCTCAG, SEQ ID NO: 128 (listed as DNA, chemistry not fully specified) . State its measured Perturb-seq pooled growth sgRNA counts, d5.
Solution: 12165

Exercise: Consider the substance POLR2H_+_184081251.23-P1P2_08: sgRNA targeting POLR2H, GGGGCCACGCGAGCAGCAGA, SEQ ID NO: 116 (listed as DNA, chemistry not fully specified) . State its measured Perturb-seq pooled growth sgRNA counts, d5.
Solution: 3492

Exercise: Consider the substance BCR_+_23523092.23-P1P2_15: sgRNA targeting BCR, GCGCGCGGGGCCCGTCGCAG, SEQ ID NO: 129 (listed as DNA, chemistry not fully specified) . State its measured Perturb-seq pooled growth sgRNA counts, d5.
Solution: 6829

Exercise: Consider the substance SEC61A1_−_127771295.23-P1_04: sgRNA targeting SEC61A1, GGCACTGAAGTGTCTCTCGG, SEQ ID NO: 87 (listed as DNA, chemistry not fully specified) . State its measured Perturb-seq pooled growth sgRNA counts, d5.
Solution: 7999

Exercise: Consider the substance non-targeting_00283: non-targeting negative control sgRNA, GGGCCGACGGATAGGAGGGA, SEQ ID NO: 166 (listed as DNA, chemistry not fully specified) [reference compound] . State its measured Perturb-seq pooled growth sgRNA counts, d5.
Solution: 18547

Exercise: Consider the substance non-targeting_00802: non-targeting negative control sgRNA, GCACGACGCTCCGGCACGCG, SEQ ID NO: 169 (listed as DNA, chemistry not fully specified) [reference compound] . State its measured Perturb-seq pooled growth sgRNA counts, d5.
Solution: 16759
